Catalogue of Ratio (BRG1 IC50 (μM) divided by BRM IC50 (μM)) values
Target Or System: BRM (Homo sapiens)
Construct: made in house; host or cells: High Five insect cells
Sequence (P51531 whole entry): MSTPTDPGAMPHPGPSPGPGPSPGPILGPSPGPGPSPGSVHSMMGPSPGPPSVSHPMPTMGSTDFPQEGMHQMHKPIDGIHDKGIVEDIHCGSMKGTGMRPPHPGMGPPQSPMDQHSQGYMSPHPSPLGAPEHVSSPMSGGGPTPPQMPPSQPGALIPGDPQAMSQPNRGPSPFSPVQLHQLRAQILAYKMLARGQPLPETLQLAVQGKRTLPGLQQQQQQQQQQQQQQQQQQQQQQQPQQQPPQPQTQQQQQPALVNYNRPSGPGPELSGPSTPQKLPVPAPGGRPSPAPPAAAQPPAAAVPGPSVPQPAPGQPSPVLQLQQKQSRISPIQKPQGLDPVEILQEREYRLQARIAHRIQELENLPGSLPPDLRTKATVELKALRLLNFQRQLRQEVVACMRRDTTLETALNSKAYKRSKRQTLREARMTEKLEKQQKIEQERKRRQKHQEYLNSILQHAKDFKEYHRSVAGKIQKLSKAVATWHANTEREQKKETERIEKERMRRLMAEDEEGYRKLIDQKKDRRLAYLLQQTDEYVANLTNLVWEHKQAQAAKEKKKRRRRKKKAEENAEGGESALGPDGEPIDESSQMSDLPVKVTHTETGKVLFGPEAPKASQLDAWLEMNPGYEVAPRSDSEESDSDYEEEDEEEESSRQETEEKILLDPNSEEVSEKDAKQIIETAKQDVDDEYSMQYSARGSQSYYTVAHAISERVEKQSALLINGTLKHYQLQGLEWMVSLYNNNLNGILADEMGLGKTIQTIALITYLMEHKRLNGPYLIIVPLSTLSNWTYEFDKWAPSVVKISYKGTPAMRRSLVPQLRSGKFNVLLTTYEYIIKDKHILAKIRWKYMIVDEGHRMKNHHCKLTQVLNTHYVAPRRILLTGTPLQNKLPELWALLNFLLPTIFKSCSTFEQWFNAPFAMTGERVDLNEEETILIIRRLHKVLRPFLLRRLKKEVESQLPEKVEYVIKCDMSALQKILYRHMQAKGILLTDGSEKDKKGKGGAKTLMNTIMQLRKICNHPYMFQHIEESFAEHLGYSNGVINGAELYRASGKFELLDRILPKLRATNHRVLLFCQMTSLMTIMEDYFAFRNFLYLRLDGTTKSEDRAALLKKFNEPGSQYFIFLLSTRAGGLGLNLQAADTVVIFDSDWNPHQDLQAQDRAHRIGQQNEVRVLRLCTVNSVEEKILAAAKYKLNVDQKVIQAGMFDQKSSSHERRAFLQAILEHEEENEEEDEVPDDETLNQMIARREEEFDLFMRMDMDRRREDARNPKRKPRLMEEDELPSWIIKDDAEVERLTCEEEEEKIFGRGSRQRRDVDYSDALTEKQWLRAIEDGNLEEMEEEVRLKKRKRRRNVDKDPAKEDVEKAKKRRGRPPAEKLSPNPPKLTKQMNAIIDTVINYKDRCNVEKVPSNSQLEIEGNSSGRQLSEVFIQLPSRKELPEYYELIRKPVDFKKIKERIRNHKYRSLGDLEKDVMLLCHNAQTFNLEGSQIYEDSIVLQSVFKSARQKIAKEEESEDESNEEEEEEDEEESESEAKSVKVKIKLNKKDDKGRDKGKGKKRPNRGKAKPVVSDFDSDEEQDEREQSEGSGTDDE
Test Details: ATPase catalytic activity assay (ADP-Glo), BRM
Format: biochemical
Assay Conditions: ATPase assay, selectivity BRG1/BRM, Table 10
Value Type: Ratio (BRG1 IC50 (μM) divided by BRM IC50 (μM))

[[record]]
smiles_repr = "C[C@@H]1[C@@H](F)CN1c1cnc2c(c1)OCCN2c1ccc2cnc(CNC(=O)c3cc(F)c4c(c3)S(=O)(=O)[C@@H](F)CCO4)cc2n1"
readout_value = 16.24

[[record]]
smiles_repr = "COc1nc([C@@H](F)C(F)F)ccc1-c1ccc2cnc(CNC(=O)c3cc(F)c4c(c3)S(=O)(=O)[C@@H](F)CCO4)cc2n1"
readout_value = 14.40

[[record]]
smiles_repr = "O=C(NCc1cc2nc(N3CCOc4cc(N5CCC(F)CC5)cnc43)ccc2cn1)c1cc(F)c2c(c1)S(=O)(=O)[C@@H](F)CCO2"
readout_value = 11.71

[[record]]
smiles_repr = "CCOc1cnc2c(c1)OCCN2c1ccc2cnc(CNC(=O)c3cc(F)c4c(c3)S(=O)(=O)[C@@H](F)CCO4)cc2n1"
readout_value = 13.39

[[record]]
smiles_repr = "O=C(NCc1cc2nc(N3CCOc4cc([C@H]5CC5(F)F)cnc43)ccc2cn1)c1cc(F)c2c(c1)S(=O)(=O)[C@@H](F)COC2"
readout_value = 12.04

